Source: PubChem BioAssay AID1996

condition_summary: buffer; pH 7.4; 200.0 µM
reported_metric: solubility kinetic (µg/mL)
One number for each entry, in µg/mL.

For every item below, please supply its solubility kinetic.
1. Cc1cccc(-c2noc(C(C)NC(=O)c3ccco3)n2)c1 (centres undefined)
2. Cc1ccc(NC(=O)C2CCCN2C(=O)OCc2ccccc2)c(C)c1 (centres undefined)
3. O=C1/C(=C\c2ccc(O)c(O)c2)SC(=S)N1Cc1ccccc1
4. CCOc1ccccc1NC(=S)NC(=O)c1ccco1
5. COc1ccc(OCC(=O)NC2CCCCCCC2)cc1
6. CCOC(=O)Cn1c(=O)oc2cc(S(=O)(=O)NC(C)(C)CC)ccc21
7. COc1ccccc1-n1c(-c2ccccc2Cl)nc2ccccc2c1=O

Resp:
1: 32.9; 2: 18.5; 3: 4; 4: 1.9; 5: 37.7; 6: 53.8; 7: 36.2

For every item below, please supply its solubility kinetic.
1. C=CCN(c1ccccc1OC)S(=O)(=O)c1cccc(C(=O)NCc2ccco2)c1
2. COc1ccc2c(c1OC)C(=O)N(c1ccc(C)cc1)C2
3. Cc1ccc(NC(=O)C2=C(C(=O)O)CCCC2)cc1Br
4. Cc1cccc(N2CCN(C(=O)c3ccc(S(=O)(=O)N(C)c4ccccc4)cc3)CC2)c1C
5. CCN(CC)S(=O)(=O)c1cccc(C(=O)NC2=NCCS2)c1
6. CCc1ccc(NC(=O)NC(C)c2ccc3c(c2)OCO3)cc1 (centres undefined)
7. O=[N+]([O-])c1cnc(Nc2ccccc2)nc1Nc1ccccc1
8. CN(CC(=O)NCCc1ccc(F)cc1)Cc1ccccc1

Resp:
1. 1
2. 3.2
3. 33.3
4. 6.7
5. 34.8
6. 1
7. 0.2
8. 38.7
